Read-out: Tumor necrosis factor receptor 1 (TNFRSF1A), TNFRSF1A (gene 7132)
Experiment: LTEA_HepaRG_TNFRSF1A: Life Technologies and Expression Analysis (LTEA) Assay for Tumor necrosis factor receptor 1 (TNFRSF1A) using HepaRG (AID 2283535)
Conditions: mRNA level, 48 h; actives raise or lower the signal
The source made the active and inactive calls. How the source made its calls: active means hit-call score of the fitted dose curve at least 0.9, where 1 is the maximum; inactive means score below 0.9.
METRIC NAME: AC50

Worked cases, AC50 given:
The compound listed as CC(C)N(C(=O)COc1nnc(C(F)(F)F)s1)c1ccc(F)cc1 shows AC50 equal to inactive

The compound listed as CNC(=O)/C=C(\C)OP(=O)(OC)OC shows AC50 equal to inactive

The compound listed as CCCN(CCC)c1c([N+](=O)[O-])cc(C(F)(F)F)cc1[N+](=O)[O-] shows AC50 equal to inactive

The compound listed as OCCOc1ccccc1 shows AC50 equal to inactive

The compound listed as CCCN(CCOc1c(Cl)cc(Cl)cc1Cl)C(=O)n1ccnc1 shows AC50 equal to inactive

The compound listed as C[C@H]1[C@H](c2ccc(Cl)cc2)SC(=O)N1C(=O)NC1CCCCC1 shows AC50 equal to inactive

The compound listed as O=[N+]([O-])/N=C1\NCCN1Cc1ccc(Cl)nc1 shows AC50 equal to 28.1 µM (active)

The compound listed as CCc1ccc(C(=O)NN(C(=O)c2cc(C)cc(C)c2)C(C)(C)C)cc1 shows AC50 equal to inactive

The compound listed as CCOC1Oc2ccc(OS(C)(=O)=O)cc2C1(C)C (configuration not stated) shows AC50 equal to inactive

The compound listed as CCC(C)(NC(=O)c1cc(Cl)c(C)c(Cl)c1)C(=O)CCl (configuration not stated) shows AC50 equal to 90.6 µM (active)

Continuing:
The compound listed as COP(=O)(OC)OC=C(Cl)Cl shows AC50 equal to inactive

The compound listed as CNC(=O)CSP(=S)(OC)OC shows AC50 equal to inactive
